assayed target: T1, recombinant human HER2 extracellular domain protein (human, UniProt P04626 23-652)
T1 construct: range 23-652; Range is printed for the immunogen/panning protein; also called ErbB2; recombinant HER2 protein
protocol: BLI, Protein A capture
Item-by-item account of kon
readout name: kon (M⁻¹ s⁻¹)

>>> reported_result("2126-Hu-H54 (antibody, IgG1, V domains shown, IgG1/Cκ) VH: QVQLVQSGSELKKPGASVKVSCKASGYTFTDYSMHWVRQAPGQGLEWMGWINTETGEPTYADDFKGRFVFSLDTSVSTAYLQISSLKAEDTAVYFCVRVGRGDYAMDYWGQGTTVTVSS VL: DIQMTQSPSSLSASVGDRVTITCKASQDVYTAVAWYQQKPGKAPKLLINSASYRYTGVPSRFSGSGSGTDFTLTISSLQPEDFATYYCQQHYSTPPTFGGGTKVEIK")
118000
>>> reported_result("2126-Hu-L21 (antibody, IgG1, V domains shown, IgG1/Cκ) VH: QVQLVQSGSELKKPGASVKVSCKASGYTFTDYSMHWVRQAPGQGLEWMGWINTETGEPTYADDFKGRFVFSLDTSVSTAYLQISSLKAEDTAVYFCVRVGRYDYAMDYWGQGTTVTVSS VL: DIQMTQSPSSLSASVGDRVTITCKASQDVYTAVAWYQQKPGKAPKLLINSASYRYTGVPSRFSGSGSGTDFTLTISSLQPEDFATYYCQQYYSTPPTFGGGTKVEIK")
109000
>>> reported_result("2126-Hu-L19 (antibody, IgG1, V domains shown, IgG1/Cκ) VH: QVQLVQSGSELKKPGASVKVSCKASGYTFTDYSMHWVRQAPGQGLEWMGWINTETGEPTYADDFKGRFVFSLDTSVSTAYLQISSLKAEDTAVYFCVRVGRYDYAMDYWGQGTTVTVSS VL: DIQMTQSPSSLSASVGDRVTITCKASQDVYTAVAWYQQKPGKAPKLLINSASYRYTGVPSRFSGSGSGTDFTLTISSLQPEDFATYYCQQAYSTPPTFGGGTKVEIK")
105000
>>> reported_result("2126-Hu-H34 (antibody, IgG1, V domains shown, IgG1/Cκ) VH: QVQLVQSGSELKKPGASVKVSCKASGYTFTDYSMHWVRQAPGQGLEWMGWINTETGEPTYADNFKGRFVFSLDTSVSTAYLQISSLKAEDTAVYFCVRVGRYDYAMDYWGQGTTVTVSS VL: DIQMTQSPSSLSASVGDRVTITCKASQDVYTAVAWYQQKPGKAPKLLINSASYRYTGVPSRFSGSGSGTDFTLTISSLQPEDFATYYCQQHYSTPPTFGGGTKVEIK")
105000
>>> reported_result("2126-Hu-L12 (antibody, IgG1, V domains shown, IgG1/Cκ) VH: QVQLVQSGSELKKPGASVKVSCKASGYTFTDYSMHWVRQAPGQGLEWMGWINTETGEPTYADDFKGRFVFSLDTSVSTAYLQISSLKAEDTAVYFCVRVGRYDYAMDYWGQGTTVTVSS VL: DIQMTQSPSSLSASVGDRVTITCKASQDVYTAVAWYQQKPGKAPKLLINSASSRYTGVPSRFSGSGSGTDFTLTISSLQPEDFATYYCQQHYSTPPTFGGGTKVEIK")
101000
>>> reported_result("2126-Hu-H32 (antibody, IgG1, V domains shown, IgG1/Cκ) VH: QVQLVQSGSELKKPGASVKVSCKASGYTFTDYSMHWVRQAPGQGLEWMGWINTETGSPTYADDFKGRFVFSLDTSVSTAYLQISSLKAEDTAVYFCVRVGRYDYAMDYWGQGTTVTVSS VL: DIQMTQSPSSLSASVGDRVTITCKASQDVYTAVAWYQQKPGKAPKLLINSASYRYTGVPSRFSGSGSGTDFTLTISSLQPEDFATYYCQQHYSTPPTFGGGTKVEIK")
111000
>>> reported_result("2126-Hu-H61 (antibody, IgG1, V domains shown, IgG1/Cκ) VH: QVQLVQSGSELKKPGASVKVSCKASGYTFTDYSMHWVRQAPGQGLEWMGWINTETGEPTYADDFKGRFVFSLDTSVSTAYLQISSLKAEDTAVYFCVRVGRYDYAFDYWGQGTTVTVSS VL: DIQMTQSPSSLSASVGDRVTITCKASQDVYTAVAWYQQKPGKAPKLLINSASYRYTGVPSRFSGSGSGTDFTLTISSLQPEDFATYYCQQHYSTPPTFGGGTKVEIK")
91400
>>> reported_result("2126-Hu-L15 (antibody, IgG1, V domains shown, IgG1/Cκ) VH: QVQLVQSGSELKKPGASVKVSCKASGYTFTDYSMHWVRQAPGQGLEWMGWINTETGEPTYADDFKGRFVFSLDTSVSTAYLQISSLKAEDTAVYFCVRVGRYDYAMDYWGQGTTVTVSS VL: DIQMTQSPSSLSASVGDRVTITCKASQDVYTAVAWYQQKPGKAPKLLINSASYRETGVPSRFSGSGSGTDFTLTISSLQPEDFATYYCQQHYSTPPTFGGGTKVEIK")
109000
>>> reported_result("2126-Hu-H40 (antibody, IgG1, V domains shown, IgG1/Cκ) VH: QVQLVQSGSELKKPGASVKVSCKASGYTFTDYSMHWVRQAPGQGLEWMGWINTETGEPTYADDFKGRFVFSRDTSVSTAYLQISSLKAEDTAVYFCVRVGRYDYAMDYWGQGTTVTVSS VL: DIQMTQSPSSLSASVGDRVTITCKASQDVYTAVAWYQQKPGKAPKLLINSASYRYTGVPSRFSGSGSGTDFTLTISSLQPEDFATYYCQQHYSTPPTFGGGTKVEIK")
104000
>>> reported_result("2126-Hu-L01 (antibody, IgG1, V domains shown, IgG1/Cκ) VH: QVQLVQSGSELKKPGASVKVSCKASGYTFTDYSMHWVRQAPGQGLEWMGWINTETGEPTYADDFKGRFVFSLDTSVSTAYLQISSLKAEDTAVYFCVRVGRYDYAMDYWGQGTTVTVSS VL: DIQMTQSPSSLSASVGDRVTITCKASQSVYTAVAWYQQKPGKAPKLLINSASYRYTGVPSRFSGSGSGTDFTLTISSLQPEDFATYYCQQHYSTPPTFGGGTKVEIK")
112000
